The values you see were collected from PubChem BioAssay (NCI).

- protocolSummary: NCI Yeast Anticancer Drug Screen. Data for the sgs1 mgt1 strain (AID 161);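 also: 0% = growth of cultures given vehicle only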
- settings: S. cerevisiae sgs1 mgt1 strain, at 50.0 µM, active compounds read high
About 79,000 compounds went through this panel and 15% of them were active in at least one assay; those are over-represented in the sample as a whole.
readoutLabel: growth inhibition (%)

* CN1CCN=C(C(=O)O)C=C1c1ccccc1O | 26.7
* CCNC(=O)[B-][N+](C)(C)C | 3.75
* O=c1[nH]c(Nc2nc3ccccc3[nH]2)nc(O)c1-c1ccccc1 | -23.2
* CC(Br)C(=O)c1ccc2ncccc2c1 (stereo unspecified) | -7.6
* Cc1cccc(NS(=O)(=O)c2ccc3c(c2)OCCOCCOCCOCCO3)c1 | 7.05
* COc1ccc(C(=O)/C=C/c2ccccc2)c(O)c1OC | 8.1
